Assay Summary: Photosensitizing ability of the compound in PBS at pH 5.2 in presence of HCl assessed as singlet oxygen production by measuring relative degradation rate of DPBF at 411 nm under photoirradiation with 90 mW/cm2 light by absorbance based assay
Type: functional
Measured Activity values are reported for all entries that follow.
Assay Readout: Activity

1. CCN(CC)Cc1ccc(C2=C(I)C(c3ccc(OC)cc3)=[N+]3C2=Nc2c(-c4ccc(CN(CC)CC)cc4)c(I)c(-c4ccc(OC)cc4)n2[B-]3(F)F)cc1 | 1.09
2. CCN(CC)Cc1ccc(C2=C(Br)C(c3ccc(OC)cc3)=[N+]3C2=Nc2c(-c4ccc(CN(CC)CC)cc4)c(Br)c(-c4ccc(OC)cc4)n2[B-]3(F)F)cc1 | 1.15
3. CCN(CC)Cc1ccc(C2=C(I)C(c3ccc(OC)cc3)=[N+]3C2=Nc2c(-c4ccccc4)c(I)c(-c4ccc(OC)cc4)n2[B-]3(F)F)cc1 | 0.98
4. COc1ccc(C2=[N+]3C(=Nc4c(-c5ccccc5)cc(-c5ccc(OC)cc5)n4[B-]3(F)F)C(c3ccccc3)=C2I)cc1 | 1.19
5. CCN(CC)Cc1ccc(C2=C(I)C(c3ccc(OC)cc3)=[N+]3C2=Nc2c(-c4ccc(CN(CC)CC)cc4)cc(-c4ccc(OC)cc4)n2[B-]3(F)F)cc1 | 1.45
6. CCN(CC)Cc1ccc(C2=C(I)C(c3ccc(OC)cc3)=[N+]3C2=Nc2c(-c4ccccc4)c4c(n2[B-]3(F)F)-c2ccc(OC)cc2CC4)cc1 | 1.21

These entries and their values trace back to ChEMBL document CHEMBL5523681.
